# System: Rattus norvegicus
# test: Antiinflammatory activity in gamma irradiated rat assessed as reduction in NFkappaB level in liver tissue homogenates at 150 mg/kg, ip administered once daily for 7 consecutive days by ELISA (reference value: 258.33 +/- 4.216 pg/ml)
# Format: functional
For each of the molecules below, state its NFkappaB level in liver tissue.
Give bare numbers, in pg/mL.

Worked examples, 3 molecules total:
CCOC(=O)c1sc2ncnc(N[C@@H](CC(=O)O)C(=O)O)c2c1C: 88.17
CCOC(=O)c1sc2ncnc(NCC(=O)O)c2c1C: 89.83
CCOC(=O)c1sc2ncnc(Cl)c2c1C: 138.17

# next molecule below
Notebook: "CCOC(=O)c1sc2ncnc(N[C@@H](CCSC)C(=O)O)c2c1C" , NFkappaB level in liver tissue read as 66.17

----------
Kindly supply the reported Activity values for the records listed here.
# System: Mus musculus
# test: Analgesic activity in Swiss albino mouse assessed as protection against acetic acid-induced writhing at 15 mg/kg, po pretreated for 30 mins followed by acetic acid challenge and measured after 20 mins relative to control
# Format: functional
Numbers only, in %.

Example entries begin here.
CC(=O)c1nn(-c2ccc(Cl)cc2)c2nc3sc(-c4ccccc4)c(C)c3c(=O)n12: 35
CC(=O)Oc1ccccc1C(=O)O: 53
CC(=O)Cc1c(C(C)C)sc2nc(S)[nH]c(=S)c12: 60
CC(=O)Cc1c(C(C)C)sc2nc(C)[nH]c(=O)c12: 59

Attention now turns to another entry.
Bench note, Mus musculus: "Cc1c(-c2ccccc2)sc2nc3n(-c4ccccc4)nc(-c4ccccc4)n3c(=O)c12" , Activity reads 52

----------
# test: Ulcerogenic activity in Sprague-Dawley rat assessed as ulcer index at 20 mg/kg, ip pretreated followed by pylorus ligation and measured at 4 hrs post ligation
# Format: toxicity, organism-based
# particulars: in vivo
recorded_metric: UI
Numbers only.

Use these answered entries as a reference point.
CC(=O)c1nn(-c2ccc(Cl)cc2)c2nc3sc(-c4ccccc4)c(C)c3c(=O)n12: 0.9
CC(=O)Cc1c(C(C)C)sc2nc(S)[nH]c(=S)c12: 1.1
CC(=O)Cc1c(C(C)C)sc2nc(C)[nH]c(=O)c12: 1.1

Now examine the next entry.
Form field UI, entry "Cc1c(-c2ccccc2)sc2nc3n(-c4ccccc4)nc(-c4ccccc4)n3c(=O)c12" : 1.1

----------
Can you tell me zone of inhibition at 100 µg/mL for the items I'm about to list?
# System: Escherichia coli
# test: Antibacterial activity against Escherichia coli assessed as zone inhibition at 100 ug/ml
# Assay type: functional
# particulars: read-out: IZ
Numbers only, in mm.

// worked examples, zone of inhibition at 100 µg/mL included
CC1(C)S[C@@H]2[C@H](NC(=O)[C@H](N)c3ccc(O)cc3)C(=O)N2[C@H]1C(=O)O: 19.5
c1csc(C2=NOC(c3cc4cncnc4s3)C2)c1 (stereo not given): 15.5
c1cnc(C2=NOC(c3cc4cncnc4s3)C2)cn1 (stereo not given): 13

Could you tell me zone of inhibition at 100 µg/mL for each of these molecules? They are listed below.
1. FC(F)(F)c1ccc(C2=NOC(c3cc4cncnc4s3)C2)cc1 (stereo not given)
2. FC(F)(F)Oc1ccc(C2=NOC(c3cc4cncnc4s3)C2)cc1 (stereo not given)

Found:
[17, 16.5]
